molecular target: peroxisome proliferator activator receptor gamma (PPARG) (Homo sapiens, UniProt P37231); experiment: SPR (Biacore T200), PPARG immobilized on CM5 chip; format: binding; settings: read-out: Kd
Sequence (P37231 whole entry): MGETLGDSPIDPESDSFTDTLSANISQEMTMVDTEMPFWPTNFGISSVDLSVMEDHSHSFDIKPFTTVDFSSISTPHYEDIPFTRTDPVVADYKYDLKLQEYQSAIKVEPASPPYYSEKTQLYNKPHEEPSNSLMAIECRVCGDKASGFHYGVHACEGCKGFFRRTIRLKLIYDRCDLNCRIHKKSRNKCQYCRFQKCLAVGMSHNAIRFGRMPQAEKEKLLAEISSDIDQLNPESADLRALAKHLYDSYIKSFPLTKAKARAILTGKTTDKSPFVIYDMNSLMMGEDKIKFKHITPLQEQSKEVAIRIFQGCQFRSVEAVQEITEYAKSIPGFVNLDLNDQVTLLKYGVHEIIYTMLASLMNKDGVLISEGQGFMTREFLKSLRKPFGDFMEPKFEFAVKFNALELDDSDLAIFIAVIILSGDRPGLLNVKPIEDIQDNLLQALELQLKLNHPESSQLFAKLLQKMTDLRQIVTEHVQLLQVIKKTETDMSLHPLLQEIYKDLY
Please respond with reported pKd for every item in the list.
In textbook form, pKd equals minus log to base ten of the concentration in mol/L.

-- ask What does the record list as pKd for O=c1c(O)c(-c2ccc(O)cc2)oc2cc(O)cc(O)c12 [Kaempferol] ?
-- reply 4.29

-- ask What does the record list as pKd for O=C(/C=C/c1ccc(O)c(O)c1/C=C/c1ccc(O)c(O)c1)O[C@H](Cc1ccc(O)c(O)c1)C(=O)O [Salvianolic acid A] ?
-- reply 5.46

-- ask What does the record list as pKd for COc1cc2c(c(OC)c1OC)-c1c(cc3c(c1OC)OCO3)CC(C)C(C)C2 (stereo not drawn) [schisandrin B] ?
-- reply 4.66
